- Target Or System: T1, FPR3 (Homo sapiens, UniProt P25089)
- T1 chain: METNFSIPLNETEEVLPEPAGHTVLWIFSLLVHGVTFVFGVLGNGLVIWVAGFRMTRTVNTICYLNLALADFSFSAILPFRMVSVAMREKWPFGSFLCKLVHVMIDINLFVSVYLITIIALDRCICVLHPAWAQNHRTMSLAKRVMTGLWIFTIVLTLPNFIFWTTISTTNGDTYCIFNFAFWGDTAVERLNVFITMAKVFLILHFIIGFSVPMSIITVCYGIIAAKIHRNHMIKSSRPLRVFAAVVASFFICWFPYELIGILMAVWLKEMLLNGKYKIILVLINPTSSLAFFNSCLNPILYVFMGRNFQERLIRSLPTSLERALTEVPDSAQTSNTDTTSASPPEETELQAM
- Protocol Details: Ca2+ flux in FPR-transfected HL60 cells, one-site binding model
Where no end group is shown, it is not given here. The star is where a group is joined. For = O=C*
Endpoint: pKd
// returns pKd (minus log10 of molar concentration), number only

[Q] Using the record for For-MEFVAKLFKFFKDLLGKFLGNN [PSMα3] , report its pKd.
[A] 5.86
